These entries and their values trace back to patent US20230416329A1.

Biological target: T1, porcine pancreatic elastase (porcine, UniProt P00772 27-266)
T1 construct: substrate AAApNA
T1 sequence (P00772 27-266 limits assumed): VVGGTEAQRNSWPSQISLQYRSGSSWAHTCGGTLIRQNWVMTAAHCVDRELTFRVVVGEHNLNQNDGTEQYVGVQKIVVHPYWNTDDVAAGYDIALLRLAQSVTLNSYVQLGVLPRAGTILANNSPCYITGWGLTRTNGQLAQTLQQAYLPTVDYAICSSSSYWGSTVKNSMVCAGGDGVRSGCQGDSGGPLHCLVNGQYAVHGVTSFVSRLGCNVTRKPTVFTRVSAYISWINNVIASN
Test: elastase inhibition, AAApNA substrate, OD405
Bridge positions count the residues as written; N and C are the ends. Ends that are not written are not given here.
MEASURED ATTRIBUTE: IC50 (nM)
Express your answer in nM, writing the number without its unit.

* CGLATLSIPPICQ (disulfide 1-12 (inferred), disulfide bond between the two Cys) [EC7] | 33700
* LCTASIPPICQ (disulfide 2-10 (inferred), disulfide bond between the two Cys) [EC12] | 400
* QGADTPPVGGLCTASIPPQCY (disulfide 12-20 (inferred), disulfide bond between the two Cys) [EC49] | 990

Entry LCTASIPPQCY (disulfide 2-10 (inferred), disulfide bond between the two Cys) [EC1] has what IC50?
1170

Which IC50 is reported for this binder? YCTASIPPICQ (disulfide 2-10 (inferred), disulfide bond between the two Cys) [EC29]
920

Returns the measured IC50 for the input binder. Input: FCTASIPPICQ (disulfide 2-10 (inferred), disulfide bond between the two Cys) [EC24]
2230
